B1: glmS ribozyme (parent)
chain: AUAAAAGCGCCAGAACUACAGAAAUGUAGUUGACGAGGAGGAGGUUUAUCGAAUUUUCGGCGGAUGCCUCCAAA

Variants of: B1
Test: self-cleavage kobs at 40 uM GlcN6P; higher = faster cleavage; RNA array
Conditions: with glucosamine-6-phosphate
Variants at the floor of the assay were thinned out.
MEASUREMENT TYPE: self-cleavage kobs at 40 uM GlcN6P

Which self-cleavage kobs at 40 uM GlcN6P reading was recorded for the variant U46A G51C ?
< 1e-05 s⁻¹

# lookup: self-cleavage kobs at 40 uM GlcN6P of U46A U69C
9.53e-05 s⁻¹

Give the measured self-cleavage kobs at 40 uM GlcN6P of A39C .
0.000188 s⁻¹

Would you mind telling me what self-cleavage kobs at 40 uM GlcN6P value was observed for A6C C71G ?
< 1e-05 s⁻¹

What value of measured self-cleavage kobs at 40 uM GlcN6P is listed for G51C U55G ?
< 1e-05 s⁻¹

# query: self-cleavage kobs at 40 uM GlcN6P of entry U31G C61G U65C
< 1e-05 s⁻¹

Report self-cleavage kobs at 40 uM GlcN6P for C11U G32C C58U C70G please.
4.92e-05 s⁻¹

Quick one: self-cleavage kobs at 40 uM GlcN6P for G13U G35C ?
< 1e-05 s⁻¹

Which self-cleavage kobs at 40 uM GlcN6P value belongs to G37C G59C A64G C68A ?
< 1e-05 s⁻¹

Could you tell me which self-cleavage kobs at 40 uM GlcN6P is on file for G40A G60A ?
< 1e-05 s⁻¹

Entry under review: C11G G29A U49G U69G . Reported self-cleavage kobs at 40 uM GlcN6P?
4.27e-05 s⁻¹

Name the reported self-cleavage kobs at 40 uM GlcN6P value associated with the variant A36G A52G
< 1e-05 s⁻¹

Which self-cleavage kobs at 40 uM GlcN6P is reported for this variant? C10A G66U
< 1e-05 s⁻¹

Recorded self-cleavage kobs at 40 uM GlcN6P of A14G U55C C70U , please.
6.64e-05 s⁻¹

Find the recorded self-cleavage kobs at 40 uM GlcN6P belonging to C16G U31C U45C and report it.
< 1e-05 s⁻¹

Could you tell me which self-cleavage kobs at 40 uM GlcN6P is on file for C16A G43U C68G C71U ?
< 1e-05 s⁻¹

Can you look up the measured self-cleavage kobs at 40 uM GlcN6P of C8U G9C C10A G37U G40U G41A C50U for me?
< 1e-05 s⁻¹

// lookup self-cleavage kobs at 40 uM GlcN6P for A15G G38U U47A C68G
9.09e-05 s⁻¹

Quick one: self-cleavage kobs at 40 uM GlcN6P of C34U U65A C67G ?
0.000176 s⁻¹

Suppose we examine the variant A6C G41A ; what self-cleavage kobs at 40 uM GlcN6P value has been reported?
< 1e-05 s⁻¹

Item under review: G32C G43U . Reported self-cleavage kobs at 40 uM GlcN6P?
< 1e-05 s⁻¹

Which value of self-cleavage kobs at 40 uM GlcN6P has been reported for C16G G41C C68G in the records?
< 1e-05 s⁻¹

Given the entry G43C U45G , report its measured self-cleavage kobs at 40 uM GlcN6P.
8.35e-05 s⁻¹

Consider the variant G35U C58U and give its measured self-cleavage kobs at 40 uM GlcN6P.
< 1e-05 s⁻¹

Give its self-cleavage kobs at 40 uM GlcN6P value. Item: U31G C71U
0.000277 s⁻¹

Dear colleague, I am looking for the recorded self-cleavage kobs at 40 uM GlcN6P of the following variant: C8G G38C C50A G66U
< 1e-05 s⁻¹

self-cleavage kobs at 40 uM GlcN6P lookup needed for A12C G43U C71A , thanks.
< 1e-05 s⁻¹

Entry under review: G41C U45G . Reported self-cleavage kobs at 40 uM GlcN6P?
< 1e-05 s⁻¹

For the variant A39U G40A , what self-cleavage kobs at 40 uM GlcN6P is on record?
0.000239 s⁻¹

Entry C10U A52C U57G : reported self-cleavage kobs at 40 uM GlcN6P = ?
< 1e-05 s⁻¹

State the recorded self-cleavage kobs at 40 uM GlcN6P for this entry: G29C U30C G38C G44A A48C U55G
< 1e-05 s⁻¹

Name the reported self-cleavage kobs at 40 uM GlcN6P value associated with the variant G60C C67A
< 1e-05 s⁻¹

Would you mind telling me what self-cleavage kobs at 40 uM GlcN6P value was observed for G13U U49G ?
< 1e-05 s⁻¹

Would you kindly share the measured self-cleavage kobs at 40 uM GlcN6P for A39G A53G ?
0.0015 s⁻¹

Request the reported self-cleavage kobs at 40 uM GlcN6P associated with A42C A53G
< 1e-05 s⁻¹

Would you mind telling me what self-cleavage kobs at 40 uM GlcN6P value was observed for U54G U56A G63C ?
< 1e-05 s⁻¹

self-cleavage kobs at 40 uM GlcN6P for U30A G44A ?
< 1e-05 s⁻¹

Please report the recorded self-cleavage kobs at 40 uM GlcN6P for C8U G9A A15C A36G U49C U57G .
< 1e-05 s⁻¹

Form field: reported self-cleavage kobs at 40 uM GlcN6P of U31A U49A C61U C70G
< 1e-05 s⁻¹

Returns the measured self-cleavage kobs at 40 uM GlcN6P for the input variant. Input: C50G
0.000121 s⁻¹

Consider the variant shown here: A15U C71A What is its recorded self-cleavage kobs at 40 uM GlcN6P?
3.22e-05 s⁻¹

Fill in the blank: the reported self-cleavage kobs at 40 uM GlcN6P of G9U U69C is ____.
< 1e-05 s⁻¹

Look up self-cleavage kobs at 40 uM GlcN6P: G38A G60U U69G
< 1e-05 s⁻¹

Query (variant): G44U G60C ; field requested: self-cleavage kobs at 40 uM GlcN6P
< 1e-05 s⁻¹

Reported self-cleavage kobs at 40 uM GlcN6P for A42G U69C : what is it?
0.00116 s⁻¹

Field request: self-cleavage kobs at 40 uM GlcN6P | item: A14C A36C G63A U65C
< 1e-05 s⁻¹

Can you look up the measured self-cleavage kobs at 40 uM GlcN6P of G60C C68A for me?
< 1e-05 s⁻¹

Record request: self-cleavage kobs at 40 uM GlcN6P value, item C11U G32C U55G A64C
< 1e-05 s⁻¹

Reported self-cleavage kobs at 40 uM GlcN6P for G44A C58A C70U : what is it?
< 1e-05 s⁻¹

self-cleavage kobs at 40 uM GlcN6P lookup needed for G43A G44U U55C , thanks.
< 1e-05 s⁻¹

// self-cleavage kobs at 40 uM GlcN6P lookup, key: A42G G43A
< 1e-05 s⁻¹

# self-cleavage kobs at 40 uM GlcN6P lookup, item C10A G40U U54C
< 1e-05 s⁻¹

Using the record for G44U A52C , report its self-cleavage kobs at 40 uM GlcN6P.
< 1e-05 s⁻¹

Which self-cleavage kobs at 40 uM GlcN6P is reported for this variant? U31C G38U
< 1e-05 s⁻¹

Given the variant G38U C61U U69C C71G , what is its reported self-cleavage kobs at 40 uM GlcN6P?
6.15e-05 s⁻¹

Fill blank: measured self-cleavage kobs at 40 uM GlcN6P of the variant A6U C8G A33U C34G U69G is ____.
8.53e-05 s⁻¹

What value of measured self-cleavage kobs at 40 uM GlcN6P is listed for U47C C61G C71U ?
< 1e-05 s⁻¹

Endpoint output: self-cleavage kobs at 40 uM GlcN6P of U30C A48C . Value?
< 1e-05 s⁻¹

// query self-cleavage kobs at 40 uM GlcN6P value for entry C8A A15G U54A
< 1e-05 s⁻¹

May I ask what self-cleavage kobs at 40 uM GlcN6P has been recorded for A14U A33G G38U C71A ?
< 1e-05 s⁻¹

Looking for the measured self-cleavage kobs at 40 uM GlcN6P of G43U C68A , can you help?
0.00235 s⁻¹

Could you share which self-cleavage kobs at 40 uM GlcN6P value was measured for C61U A64C ?
< 1e-05 s⁻¹

Value lookup for self-cleavage kobs at 40 uM GlcN6P; key = A42G U49G C50U U55G G60A
< 1e-05 s⁻¹

Form field: reported self-cleavage kobs at 40 uM GlcN6P of C10U G62U
< 1e-05 s⁻¹

Any idea what self-cleavage kobs at 40 uM GlcN6P was measured for A1U U2G A3G A5U ?
0.000338 s⁻¹

# query: self-cleavage kobs at 40 uM GlcN6P of entry G9U C68U C70U
< 1e-05 s⁻¹

Need self-cleavage kobs at 40 uM GlcN6P, item C19A U56G C68U
0.000112 s⁻¹

Sample A14G A39U U56C — what was its self-cleavage kobs at 40 uM GlcN6P?
0.000144 s⁻¹

Reported self-cleavage kobs at 40 uM GlcN6P for U54G C71G : what is it?
8.73e-05 s⁻¹

Which value of self-cleavage kobs at 40 uM GlcN6P has been reported for G40A C50G G66C in the records?
0.00112 s⁻¹

Fill in the blank: the reported self-cleavage kobs at 40 uM GlcN6P of G37A U57C G59C is ____.
< 1e-05 s⁻¹

Report self-cleavage kobs at 40 uM GlcN6P for G9U G37A please.
< 1e-05 s⁻¹

Returns the measured self-cleavage kobs at 40 uM GlcN6P for the input variant. Input: G32C U49G
< 1e-05 s⁻¹

What measured self-cleavage kobs at 40 uM GlcN6P goes with C58A G62C ?
< 1e-05 s⁻¹

GET /values?readout=self-cleavage kobs at 40 uM GlcN6P&item= C11G G43A
< 1e-05 s⁻¹

Which measured self-cleavage kobs at 40 uM GlcN6P value corresponds to G35A C50G C61G ?
0.000147 s⁻¹

Item U55G U56G has what recorded self-cleavage kobs at 40 uM GlcN6P?
0.000205 s⁻¹

Can you look up the measured self-cleavage kobs at 40 uM GlcN6P of A33G C58U for me?
< 1e-05 s⁻¹

Given the variant A42C G59C , what is its reported self-cleavage kobs at 40 uM GlcN6P?
< 1e-05 s⁻¹

What does the data say about its self-cleavage kobs at 40 uM GlcN6P? Entry: G9U A64C
< 1e-05 s⁻¹

I'd like to know its self-cleavage kobs at 40 uM GlcN6P. The variant in question is G7C C71G
< 1e-05 s⁻¹

What self-cleavage kobs at 40 uM GlcN6P value was documented for this variant, G7A A36U ?
< 1e-05 s⁻¹

Value lookup for self-cleavage kobs at 40 uM GlcN6P; key = G9A U46G G62A
< 1e-05 s⁻¹

Would you mind telling me what self-cleavage kobs at 40 uM GlcN6P value was observed for U49A G60C ?
< 1e-05 s⁻¹

Give the measured self-cleavage kobs at 40 uM GlcN6P of G9U A48G .
< 1e-05 s⁻¹

What does the record list as self-cleavage kobs at 40 uM GlcN6P for G41U G63U ?
< 1e-05 s⁻¹

I would be grateful if you could share the reported self-cleavage kobs at 40 uM GlcN6P for U45G U46G C61A .
< 1e-05 s⁻¹

Given the variant U47G A48U A52C , what is its reported self-cleavage kobs at 40 uM GlcN6P?
< 1e-05 s⁻¹

Consider the variant shown here: C10G U47A What is its recorded self-cleavage kobs at 40 uM GlcN6P?
< 1e-05 s⁻¹

Find the recorded self-cleavage kobs at 40 uM GlcN6P belonging to U55G U69C and report it.
0.000197 s⁻¹

Fill blank: measured self-cleavage kobs at 40 uM GlcN6P of the variant U30G A52C G62U is ____.
< 1e-05 s⁻¹
